Documented survival across a set of compounds
tested on: DeltatarO mutant; test: S. aureus survival, RN4220 and DeltatarO strains – OD600, teichoic acid synthesis inhibitors, primary screen (AID 463173); conditions: S. aureus RN4220 wild type/DeltatarO growth, OD600, 18 h, hits give low values, screened at 18.75 µg/mL (by protocol)
The whole screen tested about 52,000 compounds, of which about 4,300 (8.3%) were called active. The list comes from a sample in which actives are over-represented; it also holds close analogues and randomly drawn compounds.
value_kind: survival (%)

1) COc1ccc(OC)c(C2c3c(-c4ccc(Br)cc4)n[nH]c3C(=O)N2c2ccc(Cl)cc2)c1 (centres undefined) | 89
2) O=C(Nc1nnc(S(=O)(=O)N2CCOCC2)s1)c1cccc(F)c1 | 80
3) Cc1ccc(N2CCN(S(=O)(=O)c3nnc(NC(=O)c4cccc(F)c4)s3)CC2)cc1 | 57
4) COc1ccc(NC(=O)NCCc2c(C)nn(C)c2C)c(OC)c1 | 90

The values you see were collected from PubChem BioAssay AID463173.
